Readings of Residual activity (%) KP9860 for the listed compounds
- Tested on: KP9860 protease
- experimental protocol: Effects of inhibitors: residual activity, casein method
- Assay type: biochemical, Bacillus sp. KSM-KP9860
- cond: pH 7
measured parameter: Residual activity (%) KP9860

> print(dat)
                                   compound  reported.result
1  O=C(O)c1cc[c]([Hg][Cl])cc1 [PCMB, p-chloromercury benzoate]              126
2  CCN1C(=O)C=CC1=O [NEM, N-ethylmaleimide]              100
3  CC(=O)N[C@@H](CC(C)C)C(=O)N[C@@H](CC(C)C)C(=O)N[C@H](C=O)CCCNC(=N)N               93
4  CC(C)C[C@H](NC(=O)[C@@H](NC(=O)N[C@@H](Cc1ccccc1)C(=O)O)[C@@H]1CCN=C(N)N1)C(=O)N[C@H](C=O)Cc1ccccc1               80
5  O=S(=O)(F)Cc1ccccc1 [PMSF, phenylmethanesulfonyl fluoride]                0
6  CC(C)C[C@H](NC(=O)[C@H]1O[C@@H]1C(=O)O)C(=O)NCCCCN=C(N)N              103

---

- Test system: KP43 protease
- Format: biochemical, Bacillus sp. KSM-KP43
- cond: 1 mM metal salt, 20 mM borate buffer (pH 10.0), 30° C., 20 minutes; no metal salt = 100%
Decide using Residual activity (%) KP43: a value greater than or equal to 90% is 1 (yes), a smaller one is 0 (no).

> print(dat)
                                   compound  category
1                [Cl-].[Cl-].[Zn+2] [ZnCl2]    0 (no)
2    [Cl][Hg][Cl] [HgCl2, mercury chloride]    0 (no)
3  O=[N+]([O-])[O-].[Ag+] [AgNO3, silver nitrate]    0 (no)
4                [Cl][Fe]([Cl])[Cl] [FeCl3]   1 (yes)

---

- System: KP9860 protease
- Assay type: biochemical, Bacillus sp. KSM-KP9860
- cond: 1 mM metal salt, 20 mM borate buffer (pH 10.0), 30° C., 20 minutes; no metal salt = 100%
measured parameter: Residual activity (%) KP9860

> print(dat)
                                   compound     assay.system  reported.result
1                        [Cl-].[Cl-].[Zn+2]  KP9860 protease               91
2                              [Cl][Ni][Cl]  KP9860 protease               96
3    [Cl][Hg][Cl] [HgCl2, mercury chloride]  KP9860 protease               33
4                        [Cl-].[Cl-].[Mg+2]  KP9860 protease              100
5  O=[N+]([O-])[O-].[Ag+] [AgNO3, silver nitrate]  KP9860 protease               45
6                        [Cl][Fe]([Cl])[Cl]  KP9860 protease               96
7                              [Cl][Cu][Cl]  KP9860 protease               94
